experiment: Pharmacokinetic studies in Balb/c mice; settings: male, Balb/c, mouse, in vivo, po, 50 mg/kg
Endpoint Label: Tmax at 24 h

Recorded results for 2 molecules are shown here.
Molecule	Experimental Result
COC(=O)NC(=O)c1ccsc1NC(=O)c1ccc(C(=O)N2CCCCC2)cc1 [Compound 25a]	0.58 h
CCOC(=O)NC(=O)c1ccsc1NC(=O)c1ccc(C(=O)N2CCCCC2)c(F)c1 [Compound 24f]	1 h

Using the record for CCOC(=O)NC(=O)c1ccsc1NC(=O)c1nc2ccccc2s1 [TCA1, reference compound] , report its Tmax at 24 h. 1 h

----------
Give measured MIC for each item. Keep answers brief.
system: M. tuberculosis H37Rv; test: MIC against replicating M. tuberculosis H37Rv, microplate Alamar blue assay (MABA); format: cell-based; settings: Mycobacterium tuberculosis, H37RV, against M. tuberculosis H37Rv; Tables 1-3; read-out: MIC
Numbers only, in µg/mL.

Compound	MIC (µg/mL)
CCOC(=O)NC(=O)c1ccsc1NC(=O)c1ccc(C(=O)N2CCC(F)(F)CC2)cc1 [Compound 23n]	0.25

I'm hoping you can list MIC for every compound here, please.
1. CCOC(=O)NC(=O)c1ccsc1NC(=O)c1ccc(C(=O)N2CCCCC2)cc1Br [Compound 24d]
2. O=C(Nc1sccc1C(=O)Nc1nccc(C(F)(F)F)n1)c1ccc(C(=O)N2CCCCC2)cc1 [Compound 25l]
3. COC(=O)NC(=O)c1ccsc1NC(=O)c1ccc(C(=O)N2CCCCC2)c(F)c1 [Compound 25b]

1. 0.49
2. 0.2
3. 0.03

----------
assay: in vitro; conditions: human
Endpoint Label: IC50

Using the record for CCOC(=O)NC(=O)c1ccsc1NC(=O)c1ccc(C(=O)N2CCCCC2)s1 [Compound 24j] , report its IC50. > 64 µg/mL

----------
system: M. tuberculosis H37Rv; assay: MIC against replicating M. tuberculosis H37Rv, microplate Alamar blue assay (MABA); format: cell-based; conditions: Mycobacterium tuberculosis, H37RV, against M. tuberculosis H37Rv; Tables 1-3; read-out: MIC
Endpoint Label: log10 MIC (log10 of the value in µg/mL)
Hello, just confirming the data are log10 of MIC with units of µg/mL.

Compound	Experimental Result
CCOC(=O)NC(=O)c1ccsc1NC(=O)c1ccc(C(=O)NC2CCCCC2)cc1 [Compound 23e]	-0.30

I'm hoping you can list log10 MIC for every compound here, please.
1. CCOC(=O)NC(=O)c1ccsc1NC(=O)c1ccc(C(=O)N2CCC2)cc1 [Compound 23h]
2. CCOC(=O)NC(=O)c1ccsc1NC(=O)c1ccc(C(=O)N(C)CC)cc1 [Compound 23b]
3. CCOC(=O)NC(=O)c1ccsc1NC(=O)c1ccc(-c2ccc(C(=O)N3CCCCC3)cc2)cc1 [Compound 24i]
4. CCOC(=O)NC(=O)c1ccsc1NC(=O)c1ccc(C(=O)N2CCSCC2)cc1 [Compound 23p]

1: -0.08; 2: -0.02; 3: 0.89; 4: -0.48

----------
experiment: Hepatocyte stability assay, human; conditions: human hepatocytes
Give measured half-life at 1 µM for each item. Keep answers brief.
Numbers only, in min.

Recorded results for 4 compounds are shown here.
Compound	Endpoint Label	Experimental Result
CCOC(=O)NC(=O)c1ccsc1NC(=O)c1nc2ccccc2s1 [TCA1, reference compound]	half-life at 1 µM	5.97
CCOC(=O)NC(=O)c1ccsc1NC(=O)c1ccc(C(=O)N2CCCCC2)cc1 [Compound 23j]	half-life at 1 µM	50.8
COC(=O)NC(=O)c1ccsc1NC(=O)c1ccc(C(=O)N2CCCCC2)cc1 [Compound 25a]	half-life at 1 µM	20.3
COC(=O)NC(=O)c1ccsc1NC(=O)c1ccc(C(=O)N2CCCCC2)c(F)c1 [Compound 25b]	half-life at 1 µM	32.6

Using the record for CCOC(=O)NC(=O)c1ccsc1NC(=O)c1ccc(C(=O)N2CCCCC2)c(F)c1 [Compound 24f] , report its half-life at 1 µM. 38.1

----------
assay: Hepatocyte stability assay, mouse; conditions: male, mouse hepatocytes
Give measured remaining at 0.5 h, 1 µM for each item. Keep answers brief.
One number for each entry, in %.

Recorded results for 3 compounds are shown here.
Compound	Unit Annotation	remaining at 0.5 h, 1 µM
COC(=O)NC(=O)c1ccsc1NC(=O)c1ccc(C(=O)N2CCCCC2)c(F)c1 [Compound 25b]	%	19
CCOC(=O)NC(=O)c1ccsc1NC(=O)c1ccc(C(=O)N2CCCCC2)c(F)c1 [Compound 24f]	%	62.1
COC(=O)NC(=O)c1ccsc1NC(=O)c1ccc(C(=O)N2CCCCC2)cc1 [Compound 25a]	%	46.5

# input for lookup
Using the record for CCOC(=O)NC(=O)c1ccsc1NC(=O)c1ccc(C(=O)N2CCCCC2)cc1 [Compound 23j] , report its remaining at 0.5 h, 1 µM. 69.1

----------
target: hERG K+ channel (Homo sapiens, UniProt Q12809); experiment: Inhibition of the hERG K+ channel, electrophysiology
Sequence (Q12809 whole entry): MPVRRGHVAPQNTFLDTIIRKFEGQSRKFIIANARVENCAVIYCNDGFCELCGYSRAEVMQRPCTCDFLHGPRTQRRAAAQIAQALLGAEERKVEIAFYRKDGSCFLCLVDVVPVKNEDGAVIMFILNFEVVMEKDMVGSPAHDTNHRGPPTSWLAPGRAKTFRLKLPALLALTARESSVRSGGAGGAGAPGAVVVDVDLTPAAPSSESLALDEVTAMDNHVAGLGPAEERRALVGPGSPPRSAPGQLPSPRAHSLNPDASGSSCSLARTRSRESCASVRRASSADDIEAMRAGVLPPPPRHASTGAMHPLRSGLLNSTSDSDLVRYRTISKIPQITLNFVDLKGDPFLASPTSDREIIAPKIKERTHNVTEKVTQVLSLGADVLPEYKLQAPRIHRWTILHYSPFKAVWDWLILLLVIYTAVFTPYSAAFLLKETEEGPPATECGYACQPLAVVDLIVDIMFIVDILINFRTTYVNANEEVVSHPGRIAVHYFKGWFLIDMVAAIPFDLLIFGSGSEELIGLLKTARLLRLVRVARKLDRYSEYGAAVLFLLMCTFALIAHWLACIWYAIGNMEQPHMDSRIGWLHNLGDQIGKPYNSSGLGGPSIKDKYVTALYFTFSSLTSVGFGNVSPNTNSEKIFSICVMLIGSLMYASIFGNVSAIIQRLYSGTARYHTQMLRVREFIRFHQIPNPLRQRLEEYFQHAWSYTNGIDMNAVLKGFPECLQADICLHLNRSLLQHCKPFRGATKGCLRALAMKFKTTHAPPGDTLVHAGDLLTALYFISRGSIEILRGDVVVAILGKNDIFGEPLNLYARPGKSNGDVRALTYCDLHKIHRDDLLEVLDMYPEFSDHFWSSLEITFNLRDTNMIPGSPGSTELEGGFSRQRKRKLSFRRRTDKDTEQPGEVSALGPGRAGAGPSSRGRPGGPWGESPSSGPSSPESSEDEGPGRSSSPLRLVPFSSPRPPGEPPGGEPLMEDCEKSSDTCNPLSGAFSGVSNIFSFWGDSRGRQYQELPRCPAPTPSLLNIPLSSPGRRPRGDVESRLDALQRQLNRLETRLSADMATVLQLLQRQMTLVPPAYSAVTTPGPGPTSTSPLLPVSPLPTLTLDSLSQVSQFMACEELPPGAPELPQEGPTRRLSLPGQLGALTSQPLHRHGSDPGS
Endpoint Label: pIC50
Numbers only, as −log10 of the molar value.

Compound	Tested System	Experimental Result
CCOC(=O)NC(=O)c1ccsc1NC(=O)c1nc2ccccc2s1 [TCA1, reference compound]	hERG K+ channel (Homo sapiens, UniProt Q12809)	4.74
CCOC(=O)NC(=O)c1ccsc1NC(=O)c1ccc(C(=O)N2CCCCC2)s1 [Compound 24j]	hERG K+ channel (Homo sapiens, UniProt Q12809)	4.55

I'm hoping you can list pIC50 for every compound here, please.
1. CCOC(=O)NC(=O)c1ccsc1NC(=O)c1ccc(C(=O)N2CCCCC2)cc1 [Compound 23j]
2. COC(=O)NC(=O)c1ccsc1NC(=O)c1ccc(C(=O)N2CCCCC2)cc1 [Compound 25a]

1. 4.63
2. 4.65

----------
Endpoint Label: melting point

Molecule	melting point
Cc1ccnc(NC(=O)c2ccsc2NC(=O)c2ccc(C(=O)N3CCCCC3)c(F)c2)n1 [Compound 25k]	148 to 150 °C
CCOC(=O)NC(=O)c1ccsc1NC(=O)c1ccc(C(=O)N2CCCCC2)cc1[N+](=O)[O-] [Compound 24e]	113 to 114 °C
CCOC(=O)NC(=O)c1ccsc1NC(=O)c1ccc(C(=O)NC23CC4CC(CC(C4)C2)C3)cc1 [Compound 23d]	157 to 158 °C

I'm hoping you can list melting point for every molecule here, please.
1. CCOC(=O)NC(=O)c1ccsc1NC(=O)c1cc(C(=O)N2CCCCC2)c[nH]1 [Compound 24l]
2. CCOC(=O)NC(=O)c1ccsc1NC(=O)c1ccc(C(=O)N2CCCCC2)cc1Cl [Compound 24c]
3. Cc1cnc(NC(=O)c2ccsc2NC(=O)c2ccc(C(=O)N3CCCCC3)cc2)s1 [Compound 25i]
4. Cc1ccnc(NC(=O)c2ccsc2NC(=O)c2ccc(C(=O)N3CCCCC3)cc2)n1 [Compound 25j]
5. CCOC(=O)NC(=O)c1ccsc1NC(=O)c1ccc(C(=O)N2CCSCC2)cc1 [Compound 23p]
6. CCOC(=O)NC(=O)c1ccsc1NC(=O)c1ccc(C(=O)N2CCC2)cc1 [Compound 23h]
7. Cc1cccc(NC(=O)c2ccsc2NC(=O)c2ccc(C(=O)N3CCCCC3)cc2)n1 [Compound 25n]
8. COC(=O)C1CCN(C(=O)c2ccsc2NC(=O)c2ccc(C(=O)N3CCCCC3)cc2)CC1 [Compound 25f]

1: 183 to 184 °C; 2: 59 to 60 °C; 3: 236 to 238 °C; 4: 177 to 178 °C; 5: 178 to 179 °C; 6: 182 to 183 °C; 7: 171 to 174 °C; 8: 169 to 170 °C

----------
test: Pharmacokinetic studies in Balb/c mice; settings: male, Balb/c, mouse, in vivo, iv, 5 mg/kg
Endpoint Label: MRT inf at 24 h (min)
Answers are plain numbers, in min.

Compound	MRT inf at 24 h (min)
CCOC(=O)NC(=O)c1ccsc1NC(=O)c1nc2ccccc2s1 [TCA1, reference compound]	23.4
CCOC(=O)NC(=O)c1ccsc1NC(=O)c1ccc(C(=O)N2CCCCC2)c(F)c1 [Compound 24f]	7.8

# input for lookup
Using the record for COC(=O)NC(=O)c1ccsc1NC(=O)c1ccc(C(=O)N2CCCCC2)cc1 [Compound 25a] , report its MRT inf at 24 h. 12

----------
experiment: Pharmacokinetic studies in Balb/c mice; details: male, Balb/c, mouse, in vivo, iv, 5 mg/kg
Endpoint Label: Cmax at 24 h (ng/mL)
Give bare numbers, in ng/mL.

Recorded results for 2 molecules are shown here.
Molecule	Experimental Result
CCOC(=O)NC(=O)c1ccsc1NC(=O)c1nc2ccccc2s1 [TCA1, reference compound]	14300
CCOC(=O)NC(=O)c1ccsc1NC(=O)c1ccc(C(=O)N2CCCCC2)c(F)c1 [Compound 24f]	1300

Using the record for COC(=O)NC(=O)c1ccsc1NC(=O)c1ccc(C(=O)N2CCCCC2)cc1 [Compound 25a] , report its Cmax at 24 h. 4560

----------
assay: Hepatocyte stability assay, mouse; conditions: male, mouse hepatocytes
Give measured half-life at 1 µM for each item. Keep answers brief.
Numbers only, in min.

Recorded results for 3 compounds are shown here.
Compound	Endpoint Label	Experimental Result
CCOC(=O)NC(=O)c1ccsc1NC(=O)c1ccc(C(=O)N2CCCCC2)c(F)c1 [Compound 24f]	half-life at 1 µM	43.7
COC(=O)NC(=O)c1ccsc1NC(=O)c1ccc(C(=O)N2CCCCC2)cc1 [Compound 25a]	half-life at 1 µM	27.1
CCOC(=O)NC(=O)c1ccsc1NC(=O)c1ccc(C(=O)N2CCCCC2)cc1 [Compound 23j]	half-life at 1 µM	56.4

I'm hoping you can list half-life at 1 µM for every compound here, please.
1. COC(=O)NC(=O)c1ccsc1NC(=O)c1ccc(C(=O)N2CCCCC2)c(F)c1 [Compound 25b]
2. CCOC(=O)NC(=O)c1ccsc1NC(=O)c1nc2ccccc2s1 [TCA1, reference compound]

[12.5, 85.3]
